Catalogue of compounds with associated pIC50
molecular target: human CCR2B (Homo sapiens (Human), UniProt P41597); assay: Inhibition of native agonist (human MCP-1)-induced intracellular calcium release, calcium flux assay in CHO cells expressing human CCR2B and Gα16; type: cell-based; details: read-out: hCCR2B IC50
Sequence (P41597 other isoform, or with tags, fused parts or gaps): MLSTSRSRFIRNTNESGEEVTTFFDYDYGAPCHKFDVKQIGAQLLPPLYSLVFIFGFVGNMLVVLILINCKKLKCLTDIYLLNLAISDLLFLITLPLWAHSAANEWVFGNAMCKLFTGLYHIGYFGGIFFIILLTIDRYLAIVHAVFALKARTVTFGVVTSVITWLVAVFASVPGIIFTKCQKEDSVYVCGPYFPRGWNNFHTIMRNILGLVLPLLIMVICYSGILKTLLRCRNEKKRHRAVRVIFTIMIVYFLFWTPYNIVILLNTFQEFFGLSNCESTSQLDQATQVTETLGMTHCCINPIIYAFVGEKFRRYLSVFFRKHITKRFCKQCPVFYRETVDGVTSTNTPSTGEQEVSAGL
On this scale, pIC50 is minus log10 of a concentration expressed in M (mol/L).

Illustrative cases are given below, each with its answer.
Compound: CO[C@@H]1COCC[C@@H]1N[C@@H]1C[C@H]2CCC[C@@]2(C(=O)N2C[C@@H]3C[C@H]2CN3c2ccc(Cl)c(C#N)c2)C1 [Example 47]
Assay value: 7.30
--
Compound: CO[C@@H]1COCC[C@@H]1N[C@@H]1C[C@H]2CCC[C@@]2(C(=O)N2C[C@@H]3C[C@H]2CN3c2cc(C(F)(F)F)ccc2C)C1 [Example 16]
Assay value: 6.97
--
Compound: CO[C@@H]1COCC[C@@H]1N(C)[C@@H]1C[C@H]2CCC[C@@]2(C(=O)N2C[C@@H]3C[C@H]2CN3c2cc(C(F)(F)F)ccc2C#N)C1 [Example 53]
Assay value: 7.32
--
Compound: CO[C@@H]1COCC[C@@H]1N[C@@H]1C[C@H]2CCC[C@@]2(C(=O)N2C[C@@H]3C[C@H]2CN3c2cc(C#N)cc(C(F)(F)F)c2)C1 [Example 42]
Assay value: 6.09
--
Compound: CO[C@@H]1COCC[C@@H]1N[C@@H]1C[C@H]2CCC[C@@]2(C(=O)N2C[C@@H]3C[C@H]2CN3c2ncccc2C(F)(F)F)C1 [Example 33]
Assay value: 4.60

Could you now consider this next compound?
Ask | Respond only with pIC50 recorded for O=C(N1C[C@@H]2C[C@H]1CN2c1cc(C(F)(F)F)ccn1)[C@@]12CCC[C@@H]1C[C@@H](N1CCOCC1)C2 [Example 59]
Reply | 6.08

###

biological target: rat CCR2 (Rattus norvegicus (Rat), UniProt O55193); experiment: Inhibition of native agonist (rat MCP-1)-induced intracellular calcium release, calcium flux assay in CHO cells expressing rat CCR2 and Gα16; format: cell-based; conditions: read-out: rCCR2 Kb
Sequence (O55193 whole entry): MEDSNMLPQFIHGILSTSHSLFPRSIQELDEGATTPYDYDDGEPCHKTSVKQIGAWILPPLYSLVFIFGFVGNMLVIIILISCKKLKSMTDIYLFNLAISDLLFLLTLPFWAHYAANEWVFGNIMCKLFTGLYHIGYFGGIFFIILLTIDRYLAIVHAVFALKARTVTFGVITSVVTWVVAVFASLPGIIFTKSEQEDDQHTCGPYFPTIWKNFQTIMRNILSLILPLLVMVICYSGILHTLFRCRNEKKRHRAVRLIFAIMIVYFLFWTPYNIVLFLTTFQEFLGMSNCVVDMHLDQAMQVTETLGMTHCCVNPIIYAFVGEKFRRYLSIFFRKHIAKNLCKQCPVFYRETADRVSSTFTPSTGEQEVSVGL
Measurement type: Kb (nM)
Response body: numeric value in nM, unit text excluded.

Illustrative cases are given below, each with its answer.
Molecule: COc1ccc(N2C[C@@H]3C[C@H]2CN3C(=O)[C@@]23CCC[C@@H]2C[C@@H](N[C@H]2CCOC[C@H]2OC)C3)cc1C(F)(F)F
Kb (nM): 22
--
Molecule: CO[C@@H]1COCC[C@@H]1N[C@@H]1C[C@H]2CCC[C@@]2(C(=O)N2C[C@@H]3C[C@H]2CN3c2ccnc(C(F)(F)F)c2)C1
Kb (nM): 22
--
Molecule: CC[C@@H]1COCC[C@H]1N[C@@H]1C[C@H]2CCC[C@@]2(C(=O)N2C[C@@H]3C[C@H]2CN3c2cc(C(F)(F)F)ccn2)C1
Kb (nM): 8
--
Molecule: CO[C@@H]1COCC[C@@H]1N[C@@H]1C[C@H]2CCC[C@@]2(C(=O)N2C[C@@H]3C[C@H]2CN3c2cccc(Cl)c2C#N)C1
Kb (nM): 486

Ask | Respond only with Kb recorded for C[C@H]1COCC[C@H]1N[C@@H]1C[C@H]2CCC[C@@]2(C(=O)N2C[C@@H]3C[C@H]2CN3c2cc(C(F)(F)F)ccn2)C1
Reply | 55

###

target: human CCR2B (Homo sapiens (Human)); assay: Inhibition of [125I]-labeled MCP-1 binding to hCCR2B (radioligand binding in CHO cells); settings: mean Ki; [125I]-MCP-1 50 pM; CHO cells expressing human CCR2B and Gα16
Measurement type: log10 of Ki (log10 of the value in nM)
Please keep in mind that the values are log10 of Ki expressed in nM.

Ask | Please tell me the measured log10 of Ki for CO[C@@H]1COCC[C@@H]1N[C@@H]1C[C@H]2CCC[C@@]2(C(=O)N2C[C@@H]3C[C@H]2CN3c2ccc(C)c(C(F)(F)F)c2)C1 [Example 19] ; system: human CCR2B (Homo sapiens (Human)).
Reply | 2.49

Ask | Please tell me the measured log10 of Ki for CO[C@@H]1COCC[C@@H]1N(C)[C@@H]1C[C@H]2CCC[C@@]2(C(=O)N2C[C@@H]3C[C@H]2CN3c2ccc(Cl)c(C(F)(F)F)c2)C1 [Example 51] ; system: human CCR2B (Homo sapiens (Human)).
Reply | 1.32

Ask | Please tell me the measured log10 of Ki for CO[C@@H]1COCC[C@@H]1N[C@@H]1C[C@H]2CCC[C@@]2(C(=O)N2C[C@@H]3C[C@H]2CN3c2cc(C(F)(F)F)ccc2C(F)(F)F)C1 [Example 50] ; system: human CCR2B (Homo sapiens (Human)).
Reply | 1.89

Ask | Please tell me the measured log10 of Ki for CC[C@@H]1COCC[C@@H]1N[C@@H]1C[C@H]2CCC[C@@]2(C(=O)N2C[C@@H]3C[C@H]2CN3c2cc(C(F)(F)F)ccn2)C1 [Example 65] ; system: human CCR2B (Homo sapiens (Human)).
Reply | 0.78

Ask | Please tell me the measured log10 of Ki for CO[C@@H]1COCC[C@@H]1N[C@@H]1C[C@H]2CCC[C@@]2(C(=O)N2C[C@@H]3C[C@H]2CN3c2cc(C(F)(F)F)ccc2C#N)C1 [Example 28] ; system: human CCR2B (Homo sapiens (Human)).
Reply | 1.51

Ask | Please tell me the measured log10 of Ki for CO[C@@H]1COCC[C@@H]1N[C@@H]1C[C@H]2CCC[C@@]2(C(=O)N2C[C@@H]3C[C@H]2CN3c2cc(C#N)ccc2C(F)(F)F)C1 [Example 36] ; system: human CCR2B (Homo sapiens (Human)).
Reply | 3.03

###

Catalogue of compounds with associated Ki
biological target: human CCR2B (Homo sapiens (Human)); assay: Inhibition of [125I]-labeled MCP-1 binding to hCCR2B (radioligand binding in CHO cells); settings: mean Ki; [125I]-MCP-1 50 pM; CHO cells expressing human CCR2B and Gα16
Response body: numeric value in µM, unit text excluded.

Compound: CO[C@@H]1COCC[C@@H]1N[C@@H]1C[C@H]2CCC[C@@]2(C(=O)N2C[C@@H]3C[C@H]2CN3c2ccc(Cl)c(Cl)c2)C1 [Example 40]
Test system: human CCR2B (Homo sapiens (Human))
Unit annotation: µM
Ki: 0.038

Compound: CO[C@@H]1COCC[C@@H]1N[C@@H]1C[C@H]2CCC[C@@]2(C(=O)N2C[C@@H]3C[C@H]2CN3c2cc(C(F)(F)F)ccc2C)C1 [Example 16]
Test system: human CCR2B (Homo sapiens (Human))
Unit annotation: µM
Ki: 0.199

Compound: N#Cc1ccc(C(F)(F)F)cc1N1C[C@@H]2C[C@H]1CN2C(=O)[C@@]12CCC[C@@H]1C[C@@H](N1CCC(c3ccccc3)CC1)C2 [Example 48]
Test system: human CCR2B (Homo sapiens (Human))
Unit annotation: µM
Ki: 0.008

Compound: CO[C@@H]1COCC[C@@H]1N[C@@H]1C[C@H]2CCC[C@@]2(C(=O)N2C[C@@H]3C[C@H]2CN3c2ccc(Cl)c(C#N)c2)C1 [Example 47]
Test system: human CCR2B (Homo sapiens (Human))
Unit annotation: µM
Ki: 0.077

Compound: CO[C@@H]1COCC[C@@H]1N[C@@H]1C[C@H]2CCC[C@@]2(C(=O)N2C[C@@H]3C[C@H]2CN3c2ncc(C(F)(F)F)cc2Cl)C1 [Example 32]
Test system: human CCR2B (Homo sapiens (Human))
Unit annotation: µM
Ki: 1.06

Could you now consider this next compound?
Ask | Respond only with Ki recorded for CO[C@@H]1COCC[C@@H]1N(C)[C@@H]1C[C@H]2CCC[C@@]2(C(=O)N2C[C@@H]3C[C@H]2CN3c2cc(C(F)(F)F)ccc2C#N)C1 [Example 53]
Reply | 0.016

###

biological target: human CCR2B (Homo sapiens (Human)); assay: Inhibition of native agonist (human MCP-1)-induced intracellular calcium release, calcium flux assay in CHO cells expressing human CCR2B and Gα16; type: cell-based; conditions: calcium flux, human MCP-1 2 nM; read-out: hCCR2B IC50
Measurement type: pIC50
On this scale, pIC50 is minus log10 of a concentration expressed in M (mol/L).

Molecule: CO[C@@H]1COCC[C@@H]1N[C@@H]1C[C@H]2CCC[C@@]2(C(=O)N2C[C@H]3C[C@@H]2CN3c2cc(C(F)(F)F)ccn2)C1
pIC50: 5.60
//
Molecule: CO[C@@H]1COCC[C@@H]1N[C@@H]1C[C@H]2CCC[C@@]2(C(=O)N2C[C@@H]3C[C@H]2CN3c2ccc(Cl)c(Cl)c2)C1
pIC50: 7.38
//
Molecule: CO[C@@H]1COCC[C@@H]1N[C@@H]1C[C@H]2CCC[C@@]2(C(=O)N2C[C@@H]3C[C@H]2CN3c2cc(C(F)(F)F)ccc2C#N)C1
pIC50: 7.70
//
Molecule: CO[C@@H]1COCC[C@@H]1N[C@@H]1C[C@H]2CCC[C@@]2(C(=O)N2C[C@@H]3C[C@H]2CN3c2cccc(OC(F)(F)F)c2)C1
pIC50: 6.83
//
Molecule: CO[C@@H]1COCC[C@@H]1N[C@@H]1C[C@H]2CCC[C@@]2(C(=O)N2C[C@@H]3C[C@H]2CN3c2cc(C(F)(F)F)ccn2)C1
pIC50: 7.12

Could you now consider this next compound?
Ask | Respond only with pIC50 recorded for CO[C@@H]1COCC[C@@H]1N[C@@H]1C[C@H]2CCC[C@@]2(C(=O)N2C[C@@H]3C[C@H]2CN3c2ccnc(Cl)c2)C1
Reply | 5.56
